Data origin: patent US20100227824A1

- Study Target: T1, SDF-1β (CXCL12) (UniProt P48061 22-93)
- T1 construct: Beta isoform of CXCL12; also called SDFβ
- T1 sequence (P48061 22-93 limits assumed): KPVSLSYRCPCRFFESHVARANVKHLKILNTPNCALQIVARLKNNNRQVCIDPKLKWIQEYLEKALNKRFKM
- Method Notes: micro-array, phage-presented peptide on printed CK
Measured Metric: binding result

The cases that follow already have their binding result on record.
- DYDY [Phage-Presented Peptide 32 (Ph-p32)]: binds
- WVFGAAACK [Phage-Presented Peptide 8.6 (Ph-p8.6)]: binds
- DYDYG [Phage-Presented Peptide 31 (Ph-p31)]: binds
- WVFGAAMCK [Phage-Presented Peptide 8.8 (Ph-p8.8)]: binds
- DYDYGAPC [Phage-Presented Peptide 30 (Ph-p30)]: binds

Returns the measured binding result for the input binder. Input: WVFGNAACK [Phage-Presented Peptide 8.7 (Ph-p8.7)]
binds

What about this binder? NAMCK [Phage-Presented Peptide 8.11 (Ph-p8.11)]
binds

What would you report for WVFGVHFCK [Phage-Presented Peptide 8.77 (Ph-p8.77)] ?
binds
